- Tested on: Plasmodium falciparum NF54/iGP1_RE9H ulg8 stage V gametocytes
- method: gametocyte viability (luciferase signal relative to DMSO control) (% of DMSO control); higher = less gametocytocidal activity, active = 50 or less
- measurementContext: concentration: 1 µM; exposure time: 72 h
Counter-ions that a name gives are not always drawn. Among all 1,300 compounds or so, about 40 (3%) showed activity. What follows is part of a selection rich in actives, with near analogues and random picks from the rest.
measurementLabel: gametocyte viability
Could you respond with only the numeric value?

These recorded examples may help you get a feel for the data.
compound: CCN(CC)CCCC(C)Nc1ccnc2cc(Cl)ccc12 (stereo unspecified) [Chloroquine diphosphate]
reportedResult: 82.8

compound: CCCc1cc(C(N)=S)ccn1 [Prothionamide]
reportedResult: 93.7

compound: Cc1[nH]c(=O)c(C#N)cc1-c1ccncc1
reportedResult: 81

-- ask For the compound CCCCCCCCCCCCCCCC[N+](C)(C)CCN(Cc1ccc(OC)cc1)c1ncccn1 [Thonzonium bromide] , what gametocyte viability is on record?
-- reply 77

-- ask For the compound Cc1cc(NC(=O)C2=C(O)c3ccccc3S(=O)(=O)N2C)no1 , what gametocyte viability is on record?
-- reply 82.8

-- ask For the compound CN(C)CCN(Cc1ccc(Cl)cc1)c1ccccn1 [Chloropyramine hydrochloride] , what gametocyte viability is on record?
-- reply 87.4

-- ask For the compound CC(=O)Nc1c(I)c(C(=O)N[C@H]2C(O)O[C@H](CO)[C@@H](O)[C@@H]2O)c(I)c(N(C)C(C)=O)c1I (stereo partly specified) [Metrizamide] , what gametocyte viability is on record?
-- reply 84.7

-- ask For the compound CCOC(=O)[C@H](CCc1ccccc1)N[C@@H](C)C(=O)N1Cc2ccccc2C[C@H]1C(=O)O [Quinapril HCl] , what gametocyte viability is on record?
-- reply 98.4

---

- System: Plasmodium falciparum NF54/iGP1_RE9H ulg8 stage V gametocytes
- method: gametocyte viability (luciferase signal relative to DMSO control) (% of DMSO control); higher = less gametocytocidal activity, active = 50 or less
- measurementContext: concentration: 1 µM; exposure time: 72 h
The campaign covered roughly 1,300 compounds. About 40 (3%) showed activity. Many of the other results were omitted from the sample, so actives are more common in it than they were.
A collection of compounds and their measured gametocyte viability
Could you respond with only the numeric value?

These recorded examples may help you get a feel for the data.
compound: COC(=O)C1=C(C)NC(C)=C(C(=O)OC)C1c1ccccc1[N+](=O)[O-] [Nifedipine]
measuredTarget: Plasmodium falciparum NF54/iGP1_RE9H ulg8 stage V gametocytes
gametocyte viability: 91.8
//
compound: COc1ccc2[nH]c([S+]([O-])Cc3ncc(C)c(OC)c3C)nc2n1 (centres undefined) [Tenatoprazole]
measuredTarget: Plasmodium falciparum NF54/iGP1_RE9H ulg8 stage V gametocytes
gametocyte viability: 90.8

-- ask For the compound CC1=C(CC(=O)O)c2cc(F)ccc2/C1=C\c1ccc([S+](C)[O-])cc1 (centres undefined) [Sulindac] , what gametocyte viability is on record?
-- reply 88.6

-- ask For the compound NC(=O)N/N=C/c1ccc([N+](=O)[O-])o1 [Nitrofural] , what gametocyte viability is on record?
-- reply 90.1

---

A collection of compounds and their measured gametocyte viability
- Tested on: Plasmodium falciparum NF54/iGP1_RE9H ulg8 stage V gametocytes
- method: gametocyte viability (luciferase signal relative to DMSO control) (% of DMSO control); higher = less gametocytocidal activity, active = 50 or less
- measurementContext: concentration: 1 µM; exposure time: 72 h
Counter-ions that a name gives are not always drawn. Hit rate of the full screen: of about 1,300 compounds, about 40 (3%) showed activity. Only a selection was taken, and actives are over-represented in it overall.
Could you respond with only the numeric value?

These recorded examples may help you get a feel for the data.
compound: CC1=C(/C=C/C(C)=C/C=C/C(C)=C/C(=O)O)C(C)(C)CCC1 [Retinoic acid]
reportedResult: 82.1
//
compound: Cc1ccc(C)c(OCCCC(C)(C)C(=O)O)c1 [Gemfibrozil]
reportedResult: 86.7
//
compound: Cc1cccc(C)c1NC(=O)C(C)N (stereo not given) [Tocainide hydrochloride]
reportedResult: 91.8

-- ask For the compound CC(=O)Oc1cc(C(F)(F)F)ccc1C(=O)O [Triflusal] , what gametocyte viability is on record?
-- reply 82.3

-- ask For the compound Cc1cc(C(C)(C)CC(C)(C)C)ccc1OCCOCC[N+](C)(C)Cc1ccccc1 [Methyl benzethonium chloride] , what gametocyte viability is on record?
-- reply 88.6

---

- System: Plasmodium falciparum NF54/iGP1_RE9H ulg8 stage V gametocytes
- method: gametocyte viability (luciferase signal relative to DMSO control) (% of DMSO control); higher = less gametocytocidal activity, active = 50 or less
- measurementContext: concentration: 1 µM; exposure time: 72 h
Where a name gives a salt, the structure may show the parent alone. Among all 1,300 compounds or so, about 40 (3%) showed activity. The sample holds actives, similar compounds and a random draw of the others, so the mix is not that of the screen.
A collection of compounds and their measured gametocyte viability

These recorded examples may help you get a feel for the data.
compound: CCN(CCO)CCCC(C)Nc1ccnc2cc(Cl)ccc12 (stereo not drawn) [Hydroxychloroquine sulfate]
measurementLabel: gametocyte viability
reportedResult: 83.3 (inactive)

compound: CCN1CCN(C(=O)N[C@@H](C(=O)N[C@@H]2C(=O)N3C(C(=O)O)=C(CSc4nnnn4C)CS[C@H]23)c2ccc(O)cc2)C(=O)C1=O [Cefoperazone dihydrate]
measurementLabel: gametocyte viability
reportedResult: 79.3 (inactive)

# input for lookup
-- ask Form entry - test system: Plasmodium falciparum NF54/iGP1_RE9H ulg8 stage V gametocytes; read-out: gametocyte viability; compound: C[C@H]1O[C@H](O[C@H]2[C@H](O)[C@@H](O)[C@@H](O[C@@H]([C@H](O)[C@@H](O)C=O)[C@H](O)CO)O[C@@H]2CO)[C@H](O)[C@@H](O)[C@@H]1N[C@H]1C=C(CO)[C@@H](O)[C@H](O)[C@H]1O
-- reply 80.6 (inactive)
